- assay-explanation: PAMPA (parallel artificial membrane permeability assay)
- Format: in vitro ADME
- condition: PAMPA, pH 6.5
Where a name gives a salt, the structure may show the parent alone. Starred links: 1 amine or outer side, 2 acyl side, 3 side chain; linkers in the order of their positions; H or OH if unused. Positions of bridges follow the written chain, without caps; N, C: chain ends. Non-standard residues stand in square brackets, D forms with d. Residues, ends and D or L forms follow the SMILES beside them. *: point of attachment. NMeF = CN[C@@H](Cc1ccccc1)C(=O)O; NMeI = CC[C@H](C)[C@H](NC)C(=O)O; NMeβAla = CN(CCC(=O)[*:2])[*:1]; NMeL = CN[C@@H](CC(C)C)C(=O)O; NMeA = CN[C@@H](C)C(=O)O; Piperidide = C1CCN(*)CC1; dNMeA = CN[C@H](C)C(=O)O; Sar = CNCC(=O)O; tBu = CC(C)(C)*
observable: Papp at 18 hours, 50 µM (×10⁻⁶ cm/s)
Only the number, expressed in ×10⁻⁶ cm/s, is required.

Request: Data request, read-out Papp at 18 hours, 50 µM, for CC[C@H](C)[C@H]1C(=O)NCC(=O)N(C)[C@@H](Cc2ccccc2)C(=O)N[C@@H]([C@@H](C)O)C(=O)N(C)[C@@H](C)C(=O)N[C@@H](CC(C)C)C(=O)N[C@H](C(=O)N2CCCCC2)CC(=O)N(C)CCC(=O)N(C)[C@@H](C)C(=O)N[C@@H](Cc2ccccc2)C(=O)N[C@@H](C(C)C)C(=O)N(C)[C@@H](CC(C)C)C(=O)N1C [DP-59] ([NMeβAla][NMeA]FV[NMeL][NMeI]G[NMeF]T[NMeA]LD-Piperidide; lactam N-12)
Result: 21

Request: Could you tell me which Papp at 18 hours, 50 µM is on file for CC[C@H](C)[C@H]1C(=O)N[C@@H](CC(C)C)C(=O)N(C)CC(=O)N[C@@H]([C@@H](C)O)C(=O)N[C@@H](Cc2ccccc2)C(=O)N[C@@H](C)C(=O)N(C)[C@@H](CC(C)C)C(=O)N[C@@H](Cc2ccccc2)C(=O)N[C@@H](C(C)C)C(=O)N[C@H](C(=O)N2CCCCC2)CC(=O)N[C@@H](C)C(=O)N[C@@H](CC(C)C)C(=O)N1C [DP-35] (AL[NMeI]L[Sar]TFA[NMeL]FVD-Piperidide; lactam N-12) ?
Result: 12

Others:
Request: Looking for the measured Papp at 18 hours, 50 µM of CC[C@H](C)[C@H]1C(=O)N[C@H](C(=O)N2CCCCC2)CC(=O)N(C)[C@H](C)C(=O)N(C)[C@@H](C)C(=O)N(C)CC(=O)N(C)[C@@H](CC(C)C)C(=O)N[C@@H]([C@@H](C)O)C(=O)N(C)[C@@H](Cc2ccccc2)C(=O)N(C)[C@@H](CC(C)C)C(=O)N[C@@H](COC(C)(C)C)C(=O)N1C [DP-144] ([dNMeA][NMeA][Sar][NMeL]T[NMeF][NMeL]S(tBu)[NMeI]D-Piperidide; lactam N-10) , can you help?
Result: 65

----------
- assay-explanation: Metabolic stability in human hepatic microsome
- Type: in vitro ADME
- condition: microsomes, pH 7.4; human hepatic microsome, NADPH(+); read-out: CL NADPH(+)
Positions of bridges follow the written chain, without caps; N, C: chain ends. Non-standard residues stand in square brackets, D forms with d. Residues, ends and D or L forms follow the SMILES beside them. *: point of attachment. NMeF = CN[C@@H](Cc1ccccc1)C(=O)O; NMeI = CC[C@H](C)[C@H](NC)C(=O)O; NMeL = CN[C@@H](CC(C)C)C(=O)O; NMeV = CN[C@H](C(=O)O)C(C)C; NMeA = CN[C@@H](C)C(=O)O; Piperidide = C1CCN(*)CC1; Sar = CNCC(=O)O; tBu = CC(C)(C)*
observable: microsomal CLint at 1 uM
The answer should read as a number with its unit following.

Request: Please give the measured microsomal CLint at 1 uM for this compound: C=C1CCC(=O)NCC(=O)N(C)[C@@H](C)C(=O)N[C@@H](CC(C)C)C(=O)N[C@@H](C(C)C)C(=O)N(C)[C@@H](CC(C)C)C(=O)N[C@@H](Cc2ccccc2)C(=O)N(C)[C@@H](Cc2ccccc2)C(=O)N[C@@H]([C@@H](C)CC)C(=O)N(C)[C@@H](C)C(=O)N[C@@H](CC(C)C)C(=O)N[C@@H]([C@@H](C)O)C(=O)N[C@H](C(=O)N2CCCCC2)Cc2cccc1c2
Result: 89 µL/min/mg

Request: Tell me the measured microsomal CLint at 1 uM of CC(C)C[C@H]1C(=O)N[C@@H](COC(C)(C)C)C(=O)N[C@@H]([C@@H](C)O)C(=O)N(C)[C@@H](Cc2ccccc2)C(=O)N(C)[C@@H](CC(C)C)C(=O)N[C@H](C(=O)N2CCCCC2)CC(=O)N[C@@H](C(C)C)C(=O)N1C [DP-748] (V[NMeL]S(tBu)T[NMeF][NMeL]D-Piperidide; lactam N-7) , please.
Result: 341 µL/min/mg

Next:
Request: Look up microsomal CLint at 1 uM: CC[C@H](C)[C@H]1C(=O)N(C)[C@@H](C(C)C)C(=O)N(C)CC(=O)N[C@@H]([C@@H](C)O)C(=O)N[C@H](C(=O)N2CCCCC2)CC(=O)N[C@H](C)C(=O)N(C)[C@@H](C)C(=O)N(C)[C@@H](CC(C)C)C(=O)N[C@@H](CC(C)C)C(=O)N(C)[C@@H](Cc2ccccc2)C(=O)N[C@@H](Cc2ccccc2)C(=O)N1C [DP-98] ([dA][NMeA][NMeL]L[NMeF]F[NMeI][NMeV][Sar]TD-Piperidide; lactam N-11)
Result: 27 µL/min/mg

----------
- assay-explanation: PAMPA (parallel artificial membrane permeability assay)
- Assay type: in vitro ADME
- condition: PAMPA; membrane permeation rate (Pe); 50 mM MOPSO buffer pH 6.5 with 5.0% glycocholic acid, 37° C., 18 hours; read-out: iPAMPA Pe
Starred links: 1 amine or outer side, 2 acyl side, 3 side chain; linkers in the order of their positions; H or OH if unused. Positions of bridges follow the written chain, without caps; N, C: chain ends. Non-standard residues stand in square brackets, D forms with d. Residues, ends and D or L forms follow the SMILES beside them. *: point of attachment. NMeF = CN[C@@H](Cc1ccccc1)C(=O)O; NMeGABA = CN(CCCC(=O)[*:2])[*:1]; NMeL = CN[C@@H](CC(C)C)C(=O)O; NMeV = CN[C@H](C(=O)O)C(C)C; NMeA = CN[C@@H](C)C(=O)O; Piperidide = C1CCN(*)CC1; β3hA = C[C@H](N)CC(=O)O; Sar = CNCC(=O)O; tBu = CC(C)(C)*
In this section, each of the compounds is paired with its reported Papp at 18 hours, 50 µM.
Your answer is read as nm/s, so omit the unit and give the number.

Request: Endpoint output: Papp at 18 hours, 50 µM of CC(C)C[C@H]1C(=O)N(C)[C@@H](Cc2ccccc2)C(=O)N[C@H](C(=O)N2CCCCC2)CC(=O)N(C)CCCC(=O)N(C)[C@@H](C)C(=O)N(C)[C@@H](CC(C)C)C(=O)N[C@@H]([C@@H](C)O)C(=O)N(C)CC(=O)N1C [DP-712] ([NMeGABA][NMeA][NMeL]T[Sar][NMeL][NMeF]D-Piperidide; lactam N-8) . Value?
Result: 120

Request: Entry CC(C)C[C@H]1C(=O)N(C)[C@@H](C(C)C)C(=O)N[C@@H](Cc2ccccc2)C(=O)N[C@H](C(=O)N2CCCCC2)CC(=O)N[C@H](C(C)C)C(=O)N[C@@H](COC(C)(C)C)C(=O)N(C)[C@@H](CC(C)C)C(=O)N[C@@H]([C@@H](C)O)C(=O)N(C)[C@@H](Cc2ccccc2)C(=O)NCC(=O)N1C [DP-171] ([dV]S(tBu)[NMeL]T[NMeF]G[NMeL][NMeV]FD-Piperidide; lactam N-10) : reported Papp at 18 hours, 50 µM = ?
Result: 500

// next item, Papp at 18 hours, 50 µM requested
Request: Would you kindly share the measured Papp at 18 hours, 50 µM for CC(C)C[C@H]1C(=O)N(C)[C@@H](C)C(=O)N(C)[C@@H](CC(C)C)C(=O)N[C@@H]([C@@H](C)O)C(=O)N(C)[C@@H](C)C(=O)N(C)[C@@H](CC(C)C)C(=O)N[C@@H](COC(C)(C)C)C(=O)N[C@@H](C)CC(=O)N[C@H](C(C)C)C(=O)N1C [DP-802] (cyclo([NMeA][NMeL]S(tBu)[β3hA][dV][NMeL][NMeA][NMeL]T)) ?
Result: 290

----------
- assay-explanation: PAMPA (parallel artificial membrane permeability assay)
- Format: in vitro ADME
- condition: PAMPA; membrane permeation rate (Pe); 50 mM MOPSO buffer pH 6.5 with 5.0% glycocholic acid, 37° C., 18 hours; read-out: iPAMPA Pe
Starred links: 1 amine or outer side, 2 acyl side, 3 side chain; linkers in the order of their positions; H or OH if unused. Positions of bridges follow the written chain, without caps; N, C: chain ends. Non-standard residues stand in square brackets, D forms with d. Residues, ends and D or L forms follow the SMILES beside them. *: point of attachment. NMeF = CN[C@@H](Cc1ccccc1)C(=O)O; NMeβAla = CN(CCC(=O)[*:2])[*:1]; NMeL = CN[C@@H](CC(C)C)C(=O)O; NMeV = CN[C@H](C(=O)O)C(C)C; NMeA = CN[C@@H](C)C(=O)O; Piperidide = C1CCN(*)CC1; Sar = CNCC(=O)O
Below, each of the compounds is paired with its reported Papp at 18 hours, 50 µM value.
The answer should read as a number with its unit following.

Request: Entry CC[C@H](C)[C@H](NC(=O)[C@H](CC(C)C)N(C)C(=O)[C@@H]1CCCN1C(=O)[C@H](Cc1ccccc1)N(C)C(=O)[C@@H]1CC(=O)N(C)CCC(=O)N[C@@H](Cc2ccccc2)C(=O)N(C)[C@@H](CC(C)C)C(=O)N[C@@H]([C@@H](C)O)C(=O)N[C@@H](C(C)C)C(=O)NCC(=O)N(C)[C@@H](CC(C)C)C(=O)N[C@@H](CC(C)C)C(=O)N(C)[C@@H](CC(C)C)C(=O)N1)C(=O)N1CCCCC1 [DP-948] ([NMeβAla]F[NMeL]TVG[NMeL]L[NMeL]D[NMeF]P[NMeL]I-Piperidide; lactam N-10) : reported Papp at 18 hours, 50 µM = ?
Result: 0.78 ×10⁻⁶ cm/s

// below: Papp at 18 hours, 50 µM requested for another compound
Request: Fill in: Papp at 18 hours, 50 µM of CC(C)C[C@@H]1NC(=O)[C@H](CC(C)C)N(C)C(=O)[C@H](Cc2ccccc2)NC(=O)[C@H](C)NC(=O)[C@H](C(C)C)N(C)C(=O)CN(C)C(=O)[C@H]([C@@H](C)O)NC(=O)[C@H](C)N(C)C(=O)[C@H](CC(C)C)N(C)C(=O)[C@H](C)NC(=O)C[C@@H](C(=O)N(C)[C@@H](Cc2ccccc2)C(=O)N[C@@H](C)C(=O)N2CCCCC2)NC1=O [DP-177] (A[NMeL][NMeA]T[Sar][NMeV]AF[NMeL]LD[NMeF]A-Piperidide; lactam N-11) is ___
Result: 23 ×10⁻⁶ cm/s
